- Test system: (S)-α-phenethylamine:pyruvate transaminase
- protocol.notes: Substrate specificity for amino group receptors (acetophenone quantified by HPLC)
- Format: biochemical, Pseudomonas sp. KNK425
- condition.label: substance as amino group receptor, 22.5 mM; donor 22.5 mM (S)-α-phenethylamine; pH 7.0, 30° C., 1 hour; pyruvic acid = 100; Table 3
result.type: Relative Activity (%)

CCC(=O)C(=O)O | 5.8
O=C(O)CCC(=O)C(=O)O | 0
O=CC(=O)O | 100
CCCC(=O)C(=O)O | 1.5
CC(=O)C(=O)O | 100

---

Listed next: entries and their corresponding Relative Activity (%) of (S)-α-Phenethylamine:Pyruvate Transaminase [Present Invention].
- Tested on: (S)-α-phenethylamine:pyruvate transaminase
- protocol.notes: Substrate specificity for amino group donors (dabsylated alanine quantified by HPLC)
- Type: biochemical, Pseudomonas sp. KNK425
- condition.label: substance as amino group donor; amino group receptor pyruvic acid; Table 4
result.type: Relative Activity (%) of (S)-α-Phenethylamine:Pyruvate Transaminase [Present Invention]

C[C@H](N)c1ccccc1 [(S)-α-Phenethylamine] | 100
NCCCCN [Putrescine] | 0
NCCC(=O)O [β-Alanine] | 0
NCCS(=O)(=O)O [Taurine] | 0

---

- Test system: (S)-α-phenethylamine:pyruvate transaminase
- protocol.notes: Substrate specificity for amino group donors (dabsylated alanine quantified by HPLC)
- Format: biochemical, Pseudomonas sp. KNK425
- condition.label: substance as amino group donor, 22.5 mM; 22.5 mM pyruvic acid; pH 7.0, 30° C., 1 hour; (S)-phenethylamine = 100; Table 2
Reported Relative Activity (%) values for a set of molecules
result.type: Relative Activity (%)

CCCCCN | 5
CCCCCC(C)N (stereo not shown) | 28
CCCCCCC(C)N (stereo not shown) | 46
CC(N)c1cccc(O)c1 (stereo not drawn) [3′-Hydroxy-α-phenethylamine] | 52

---

- Test system: (S)-α-phenethylamine:pyruvate transaminase
- protocol.notes: Substrate specificity for amino group donors (dabsylated alanine quantified by HPLC)
- Type: biochemical, Pseudomonas sp. KNK425
- condition.label: substance as amino group donor, 22.5 mM; 22.5 mM pyruvic acid; pH 7.0, 30° C., 1 hour; (S)-phenethylamine = 100; Table 2
result.type: Relative Activity (%)

CCCC(C)N (stereo not shown) | 4
CC(C)N | 0
NCCCc1ccccc1 | 1
CC(N)CCc1ccccc1 (stereo not shown) | 80
C[C@@H](N)c1ccccc1 [(R)-α-Phenethylamine] | 3
NCCc1ccccc1 | 23
CCCN | 0
COc1ccc(CC(C)N)cc1OC (stereo not shown) | 18
C[C@H](N)c1ccccc1 [(S)-α-Phenethylamine] | 100
CCCCN | 2
NC1CCCCC1 | 1
CCC(C)N (stereo not shown) | 1
NCc1ccccc1 | 13

---

- Tested on: (S)-α-phenethylamine:pyruvate transaminase
- protocol.notes: Substrate specificity for amino group receptors (acetophenone quantified by HPLC)
- Assay type: biochemical, Pseudomonas sp. KNK425
- condition.label: compound as amino group receptor; donor (S)-α-phenethylamine; same manner as Example 5; Table 6
result.type: Relative Activity (%)

COCC(C)=O | 5
O=CCc1ccccc1 | 37
O=CCCc1ccccc1 | 16
CC(=O)C(=O)O | 100

---

- System: (S)-α-phenethylamine:pyruvate transaminase
- protocol.notes: Substrate specificity for amino group receptors (acetophenone quantified by HPLC)
- Assay type: biochemical, Pseudomonas sp. KNK425
- condition.label: ketone compound as amino group receptor; donor (S)-α-phenethylamine; same manner as Example 5; Table 5
result.type: Relative Activity (%)

COc1cccc(C(C)=O)c1 | 4
CC(=O)CC(=O)c1ccccc1 | 12
CC(=O)c1nccs1 | 4
CC(=O)c1cccc(O)c1 [3′-Hydroxyacetophenone] | 6
COc1ccc(CC(C)=O)cc1OC | 38
